Molecular target: human NCX1 (Homo sapiens, UniProt P32418)
Construct: expressed in transfected cells
Assay: NCX1 inhibition, reverse mode (Ca2+ influx into cells), FLIPR Fluo-4 assay
Assay type: cell-based
Conditions: inhibition of NCX1 in reverse mode (Ca2+ influx into cells); read-out: NCX1rv IC50
Procedure: The sodium/calcium exchanger NCX1 can transport calcium ions and sodium ions through the cell membrane. The transport is an exchange of Ca^2+ and Na^+ in two directions depending on membrane potential and ion gradients. […] The effect of the compounds of the invention on NCX1 was determined in CHO cells stably expressing human NCX1 (gene symbol SLC8A1; cf. WO 2009/115238). […]
Could you mark each record true if its IC50 falls strictly under 800 nM, and false if it equals or exceeds it?

Solved entries (count: 5):
> print(dat)
                                   compound                         target.under.test  category
1  CCC(C)[C@H](NC(=O)c1cnc(Oc2ccc3c(c2)CC[C@@H](c2ccccc2)O3)s1)C(=O)O (stereo partly shown)  human NCX1 (Homo sapiens, UniProt P32418)      true
2  CC[C@@H](NC(=O)c1cnc(Oc2ccc3c(c2)CCC(c2ccccc2)O3)s1)c1ccc(OC)nc1 (stereo partly shown)  human NCX1 (Homo sapiens, UniProt P32418)      true
3  CCn1cc(CNC(=O)c2cnc(Oc3ccc4c(c3)CCC(c3ccccc3)O4)s2)cn1 (stereo not shown)  human NCX1 (Homo sapiens, UniProt P32418)      true
4  CCC(CC)NCc1cnc(Oc2ccc3c(c2)CCC(c2ccccc2)O3)s1 (stereo not shown)  human NCX1 (Homo sapiens, UniProt P32418)      true
5  CC(C)[C@@H](CO)NC(=O)c1cnc(Oc2ccc3c(c2)CC[C@@H](c2ccccc2)O3)s1  human NCX1 (Homo sapiens, UniProt P32418)      true

Problem: Regarding CC[C@H](C)[C@H](NC(=O)c1cnc(Oc2ccc3c(c2)CCC(c2cccnc2)O3)s1)C(=O)O (stereo partly shown) , kindly confirm whether its IC50 is beneath 800 nM.
Solution: false

Problem: Consider the compound Cc1cc(CNCc2cnc(Oc3ccc4c(c3)CCC(c3ccccc3)O4)s2)n(C)n1 (stereo not shown) . Is its IC50 strictly less than 800 nM?
Solution: true

Problem: Say whether its IC50 is strictly beneath 800 nM. Entry: Cc1cccc(C)c1C1CCc2cc(Oc3ncc(C(=O)NCc4ccno4)s3)ccc2O1 (stereo not shown)
Solution: false

Problem: Please indicate whether the reported IC50 of "COC(=O)[C@@H](NC(=O)c1cnc(Oc2ccc3c(c2)CC[C@@H](c2ccccc2)O3)s1)C(C)(C)C" is strictly below 800 nM.
Solution: true

Problem: Here's an entry: Cc1nc(C)c(C(=O)NCc2cnc(Oc3ccc4c(c3)CCC(c3ccccc3)O4)s2)o1 (stereo not shown) . Is its IC50 below 800 nM?
Solution: true

----------
Molecular target: human NCX1 (Homo sapiens)
Construct: expressed in transfected cells
Assay: NCX1 inhibition, reverse mode (Ca2+ influx into cells), FLIPR Fluo-4 assay
Type: cell-based
Details: inhibition of NCX1 in reverse mode (Ca2+ influx into cells); read-out: NCX1rv IC50
Where a name gives a salt, the structure may show the parent alone.
measure: pIC50
Scale: negative log10 of molar concentration, which is what pIC50 denotes.

Here are 5 compounds together with their reported answers.
> print(dat)
                                   compound  measure  measured.result
1  NC1CC(NC(=O)c2cnc(Oc3ccc4c(c3)CC[C@@H](c3ccccc3)O4)s2)C1 (stereo partly shown)    pIC50             6.40
2  Cc1c(C(=O)NCc2cnc(Oc3ccc4c(c3)CCC(c3ccccc3)O4)s2)cnn1C (stereo not shown)    pIC50             6.15
3  O=C(CN1CC[C@@H](O)C1)NCc1cnc(Oc2ccc3c(c2)CCC(c2ccccc2)O3)s1 (stereo partly shown)    pIC50             6.40
4  CN1CCN(C(=O)c2cnc(Oc3ccc4c(c3)CC[C@@H](c3ccccc3)O4)s2)CC1 [compound 213, hydrochloride]    pIC50             6.10
5  CC(C)CNC(=O)c1cnc(Oc2ccc3c(c2)CCC(c2ccccc2)O3)s1 (stereo not shown)    pIC50             7.00

Problem: pIC50 lookup needed for "CCCNC(=O)c1cnc(Oc2ccc3c(c2)CC[C@@H](c2ccccc2)O3)s1" , thanks.
Solution: 6.22

Problem: For the compound O=C(c1cnc(Oc2ccc3c(c2)CCC(c2ccccc2)O3)s1)N1CCOCC1 (stereo not shown) , what pIC50 is on record?
Solution: 7.00

Problem: pIC50 lookup needed for CC(C)Oc1cccc(C2CCc3cc(Oc4ncc(C(=O)NCc5ccncc5)s4)ccc3O2)c1 (stereo not shown) , thanks.
Solution: 6.10

Problem: Which pIC50 is reported for this compound? COC(=O)C(C)(Cc1ccccc1)NC(=O)c1cnc(Oc2ccc3c(c2)CC[C@@H](c2ccccc2)O3)s1 (stereo partly shown)
Solution: 5.60

Problem: Given the entry O=C(Cc1ccccn1)NCc1cnc(Oc2ccc3c(c2)CCC(c2ccccc2)O3)s1 (stereo not shown) [compound 19, hydrochloride] , report its measured pIC50.
Solution: 7.00

----------
Molecular target: human NCX1 (Homo sapiens)
Construct: expressed in transfected cells
Assay: NCX1 inhibition, reverse mode (Ca2+ influx into cells), FLIPR Fluo-4 assay
Type: cell-based
Conditions: inhibition of NCX1 in reverse mode (Ca2+ influx into cells); read-out: NCX1rv IC50
Structures can show the parent of a compound that is named as a salt.
measure: pIC50
Note on units: pIC50 is unitless, being -log10 of a concentration expressed in mol/L.

Here's what some known entries look like.
> print(dat)
                                   molecule  measure  measured.result
1  Cc1cc(C)nc(CNC(=O)c2cnc(Oc3ccc4c(c3)CCC(c3ccccc3)O4)s2)n1 (stereo not shown) [compound 33]    pIC50             6.70
2  COC(=O)CNC(=O)c1cnc(Oc2ccc3c(c2)CC[C@@H](c2ccccc2)O3)s1 [compound 181]    pIC50             6.70
3  O=C(NCc1ccnc(N2CCCC2)c1)c1cnc(Oc2ccc3c(c2)CCC(c2ccccc2)O3)s1 (stereo not shown) [compound 25]    pIC50             6.40

# ---- query molecule ----
Problem: Requested read-out: pIC50. Entry: O=C(NCc1cnc(Oc2ccc3c(c2)CCC(c2ccccc2)O3)s1)c1cccnc1 (stereo not shown) [compound 15, hydrochloride]
Solution: 7.00

----------
Target: human NCX1 (Homo sapiens, UniProt P32418)
Construct: expressed in transfected cells
Assay: NCX1 inhibition, reverse mode (Ca2+ influx into cells), FLIPR Fluo-4 assay
Format: cell-based
Conditions: inhibition of NCX1 in reverse mode (Ca2+ influx into cells); read-out: NCX1rv IC50
// NB: equality with 300 nM counts as condition not met; only IC50 strictly below is condition met

Previously resolved entries follow.
> print(dat)
                                   compound                         target.under.test           category
1  C[C@@H](NC(=O)c1cnc(Oc2ccc3c(c2)CC[C@@H](c2ccccc2)O3)s1)C(=O)O [compound 194]  human NCX1 (Homo sapiens, UniProt P32418)  condition not met
2  O=C(N[C@@H](Cc1ccccc1)C(=O)O)c1cnc(Oc2ccc3c(c2)CC[C@@H](c2ccccc2)O3)s1 [compound 244]  human NCX1 (Homo sapiens, UniProt P32418)  condition not met
3  Cc1ccn(CCNCc2cnc(Oc3ccc4c(c3)CCC(c3ccccc3)O4)s2)n1 (stereo not shown) [compound 136]  human NCX1 (Homo sapiens, UniProt P32418)  condition not met
4  O=C(NCc1ccncc1)c1cnc(Oc2ccc3c(c2)CC[C@H](c2ccccc2)O3)s1 [compound 37]  human NCX1 (Homo sapiens, UniProt P32418)      condition met
5  OCCNCc1cnc(Oc2ccc3c(c2)CC[C@@H](c2ccccc2)O3)s1 [compound 266]  human NCX1 (Homo sapiens, UniProt P32418)      condition met

Problem: Find out if reported IC50 for Cc1ccc(F)cc1C1CCc2cc(Oc3ncc(C(=O)NCc4ccno4)s3)ccc2O1 (stereo not shown) [compound 344] is less than 300 nM
Solution: condition not met

Problem: Bench note: check whether C[C@@H]1CN(Cc2cnc(Oc3ccc4c(c3)CCC(c3ccccc3)O4)s2)C[C@H](C)O1 (stereo partly shown) [compound 100] shows IC50 below 300 nM
Solution: condition not met

----------
The molecules listed here are annotated with their pIC50.
Biological target: human NCX1 (Homo sapiens, UniProt P32418)
Construct: expressed in transfected cells
Assay: NCX1 inhibition, reverse mode (Ca2+ influx into cells), FLIPR Fluo-4 assay
Format: cell-based
Conditions: inhibition of NCX1 in reverse mode (Ca2+ influx into cells); read-out: NCX1rv IC50
Where a name gives a salt, the structure may show the parent alone.
Conceptually, pIC50 converts a concentration in mol/L into minus its log10.

Example entries begin here.
> print(dat)
                                   molecule  measured.result
1  O=C(c1cnc(Oc2ccc3c(c2)CC[C@@H](c2ccccc2)O3)s1)N1CCC2(CCCNC2)C1 (some centres unmarked) [compound 290]             6.22
2  c1ccc(C2CCc3cc(Oc4ncc(CNC5CC5)s4)ccc3O2)cc1 (centres unmarked) [Example 103]             6.70
3  CCn1nccc1C(=O)NCc1cnc(Oc2ccc3c(c2)CCC(c2ccccc2)O3)s1 (centres unmarked) [compound 70]             6.52
4  O=C(NCc1ccncc1Cl)c1cnc(Oc2ccc3c(c2)CCC(c2ccccc2)O3)s1 (centres unmarked) [compound 40]             6.40
5  O=C(NCc1ccncc1)c1cnc(Oc2ccc3c(c2Cl)CCC(c2ccccc2)O3)s1 (centres unmarked) [compound 55, hydrochloride]             5.92

Problem: Any idea what its pIC50 is? The molecule is c1ccc(C2CCc3cc(Oc4ncc(CNC5CCC5)s4)ccc3O2)cc1 (centres unmarked) [compound 110]
Solution: 6.70
